# protocolDescription: gradient 5% acetonitrile 3 min, to 50% in 2 min, to 85% in 15 min, held 3 min, 100 µL/min
# conditionSet: column: Zorbax Extend-C18 2.1 x 50 mm; eluents: water / acetonitrile, 0.1% formic acid
For each entry below, report its RP-LC retention time value.
Reply with just the number (in s).

Entry "COc1ccc(-c2csc(SCc3ccc(C(=O)N4CCOCC4)o3)n2)cc1OC" needs its RP-LC retention time filled in; supply it.
783

Read off the recorded RP-LC retention time for CCc1nc2cc(N3CCCC(C(=O)NCc4cccnc4)C3)cnc2nc1CC (centres undefined)
600

Give the measured RP-LC retention time for "CC1CCN(S(=O)(=O)c2ccc3nn(CCOc4ccc(F)cc4)c(=O)n3c2)CC1"
1340

Quickly give me recorded RP-LC retention time for "CCn1cc(-c2ccc(OC)cc2)cc1C(=O)N1CCCCCC1"
1080

Answer with the recorded RP-LC retention time for the compound listed here: Cc1noc(C)c1CC(=O)NC1CCc2nn(CC3CC3)c(=O)n2CC1 (centres undefined)
625

Quote RP-LC retention time reported for "Cc1ccc(Cn2c(C)c(CNCc3ccco3)c(C(=O)O)c2C)cc1" please.
666

Using known records, supply RP-LC retention time for COc1ccc(C(O)CN2CCN(c3ccccc3)CC2)cc1 (centres undefined)
630

Give RP-LC retention time for COc1ccc(S(=O)(=O)N2CCCC(C(=O)Nc3cccc(F)c3)C2)cc1C (centres undefined)
1040

Give reported RP-LC retention time value for "Cc1nc(Cn2cccc2C(=O)Nc2cccc(Cl)c2)no1"
911

For the compound "COc1ccc(-n2c(=O)c(C(=O)NC3CCCCC3)c(O)c3cccnc32)cc1" , give its measured RP-LC retention time value.
1300

Output RP-LC retention time of CCC(CC)C(=O)N1CCCC(c2nc(CNC(=O)C3CCC3)cs2)C1 (centres undefined)
777

Dear colleague, please send me the reported RP-LC retention time for "CCN1c2ccccc2C(=O)NC12CCN(C(=O)c1ccc(F)c(F)c1)CC2" when you can.
799

Input "COc1ccc(-c2nc(Cn3cnc4ccccc4c3=O)no2)cc1OC" , output reported RP-LC retention time.
765

Indicate the recorded RP-LC retention time value for this compound: "Cc1ccc(-c2nnc(Cc3nc(-c4ccccc4)no3)o2)cc1F"
1050

Output measured RP-LC retention time for this item: "O=C(c1n[nH]c2c1CCCC2)N1CCn2c(nnc2-c2ccccc2)C1"
645

Read off the recorded RP-LC retention time for "O=S(=O)(c1ccccc1F)N1CC(F)(F)C[C@H]1CN1CCc2ccccc2C1"
738

Report RP-LC retention time for "CCNC(=O)c1cn(-c2ccc(NC(=O)C3CC3)cn2)cn1"
615

In one line, give reported RP-LC retention time of the entry "CN1CC(=O)N(CC(=O)Nc2ccc(OC(F)(F)F)cc2)c2ccccc2C1=O" .
777

Please give the documented RP-LC retention time of "O=C(CCc1c(-c2ccccc2)nc2ccccn12)Nc1ccc(Br)cc1F"
722

For the compound "COc1ccc(NC(=O)Cc2c(C)nn(-c3nc(C)cs3)c2C)cc1" , report RP-LC retention time.
873

Report RP-LC retention time, nothing else, for this compound: "CCCn1cc(CCNS(=O)(=O)c2cccc(Cl)c2)c2cccnc21"
804

Look up and state reported RP-LC retention time for "CCCCN(C)C(=O)C1CCN(S(=O)(=O)c2ccc3c(c2)CCCC(=O)N3)CC1"
719

State its RP-LC retention time: "CCOC(=O)c1noc2nc(C)nc(Nc3ccc(Cl)cc3)c12"
1200

Kindly indicate its recorded RP-LC retention time. Item: O=C(NCCc1ccccc1)C1CN(S(=O)(=O)c2cccnc2)CC12CCCCC2 (centres undefined)
895

Give RP-LC retention time for the following compound: "Cc1cccc(CN2C(=O)N(c3cccc(F)c3)c3ncccc3S2(=O)=O)c1"
1050

Return RP-LC retention time for the following compound: CC(C)NC(=O)C1CCCN(c2nc3ncn(CC(=O)Nc4ccc(F)c(F)c4)c(=O)c3s2)C1 (centres undefined)
716

Supply recorded RP-LC retention time for "Cc1cc2c(c(=O)n(-c3ccc(F)cc3)c(=O)n2CC(=O)N2CCCc3ccccc32)n1C" here.
893

Report measured RP-LC retention time; entry is "CCOc1ccc(-c2nc(CNC(=O)Nc3cc(OC)ccc3OC)c(C)o2)cc1"
963

Input "COc1ccc(NC(=O)CCNc2cnc3cnccn23)c(C)c1" , output reported RP-LC retention time.
576

# return recorded RP-LC retention time for entry "O=C(CCn1c(=O)sc2ccccc21)Nc1nc(-c2ccc(Br)cc2)cs1"
1120

For the compound "Cc1cc(-c2c(C)sc(C)c2S(=O)(=O)NC2CCCCCC2)n[nH]1" , report RP-LC retention time.
1140

Give the reported RP-LC retention time for this compound. "Cc1ccc(NS(=O)(=O)c2cc(-c3[nH]ncc3C(=O)N3CCOCC3)oc2C)c(F)c1"
701

Please indicate RP-LC retention time recorded for "CCCNC(=O)C(=O)NCc1n[nH]c(=O)c2ccccc12"
627

Return RP-LC retention time for the following compound: Cc1cc(=O)n(CC(=O)NC(C)CCc2ccccc2)c(N2CCc3ccccc3C2)n1 (centres undefined)
872

Read the entry "O=C(CSc1nccn1-c1cccc(C(F)(F)F)c1)Nc1nccs1" and write its reported RP-LC retention time.
728

Note RP-LC retention time for the compound shown: CSc1ccc(NC(=O)NC2CCN(c3cc(C)cc(C)c3)C2=O)cc1 (centres undefined)
916

Look up and report measured RP-LC retention time for this entry: CC(=O)N1CCc2ccccc2C1C(=O)NCc1ccccc1C (centres undefined)
788

Tell us which RP-LC retention time value is on record for "CC(C)CCNC(=O)c1ccc2nc(CCc3ccc(NC(=O)C(C)C)cc3)[nH]c2c1"
676

Return RP-LC retention time (reported value) for this compound: "Fc1cccc(-c2noc(-c3nc(-c4ccc5c(c4)OCO5)no3)n2)c1"
1220

###

Provide the recorded RP-LC retention time for the entries that follow.
# protocolDescription: gradient 5% acetonitrile 3 min, to 50% in 2 min, to 85% in 15 min, held 3 min, 100 µL/min
# conditionSet: column: Zorbax Extend-C18 2.1 x 50 mm; eluents: water / acetonitrile, 0.1% formic acid
Give the value in s but do not write s after it.

For "COc1ccc(NS(=O)(=O)c2c(C)sc(C)c2-c2cc(C(F)(F)F)on2)cc1Cl" , write its RP-LC retention time.
1180

Report measured RP-LC retention time; entry is "Cc1cccc(N2CCN(c3cc(-c4ccccc4)nc4c(-c5ccccc5)cnn34)CC2)n1"
1010

Answer with the recorded RP-LC retention time of "CCCn1ncc(N2CCC(C(=O)N3CCC(C)CC3)CC2)cc1=O" only.
734

# return recorded RP-LC retention time for input "CCOc1ccc(-c2c(C#N)c(N)nc(SCC(=O)OCc3ccccc3)c2C#N)cc1"
997

Read off the recorded RP-LC retention time for "Cc1nc(-c2cn(C(C)C)c3ncccc23)sc1C(=O)Nc1cccc(F)c1"
1140

Please list RP-LC retention time recorded for the compound CCOCCCNC(=O)C(CC)n1nc(C)c2nn(-c3ccccc3)c(C)c2c1=O (stereo not drawn)
823

Entry "c1ccc(-c2nc(-c3ccnc(N4CCOCC4)c3)no2)nc1" needs its RP-LC retention time filled in; supply it.
665

Identify the reported RP-LC retention time for the following entry. "Cc1cccc(C(=O)Nc2ccc3c(c2)Sc2ncccc2C(=O)N3C)c1"
809

Return RP-LC retention time for the following compound: "Cc1ccccc1NS(=O)(=O)c1cc2n(c1)CCCNC2=O"
646

Name the recorded RP-LC retention time of the item CC1CCCCN1CCNC(=O)c1c2c(cn(-c3ccc(F)cc3)c1=O)C(=O)CC(C)(C)C2 (stereo not drawn) in your answer.
675

Could you please provide reported RP-LC retention time for "O=C(CCCc1nnc2c(=O)n(-c3ccc(Cl)cc3)ccn12)N1CCN(c2ccccn2)CC1" ? Thanks!
595

Give the measured RP-LC retention time for O=C(Cn1nc2c(c1NC(=O)c1c(F)cccc1Cl)CSC2)NCC1CCCO1 (stereo not drawn)
671

Consider the compound "Cc1nc2ccccc2nc1SCC(=O)c1ccccc1" . State its measured RP-LC retention time.
970

Fill in reported RP-LC retention time for this entry: "CCCn1cc(C(=O)Nc2ccc3c(c2)OCO3)c(=O)c2ccc(C)nc21"
1100

Write down RP-LC retention time measured for item "C=Cc1ccc(Cn2ccn(-c3cccc(Cl)c3C)c(=O)c2=O)cc1"
843

Please report RP-LC retention time for the following compound: "COc1ccccc1N1CCN(CCNC(=O)Cc2ccc(Cl)cc2)CC1"
572

Please give the documented RP-LC retention time of "O=C(NC1CCN(c2cc(-c3cccnc3)[nH]n2)CC1)C1CCCCC1"
573

# return recorded RP-LC retention time for input "Cc1ccccc1-c1noc(Cn2ccn(-c3ccccc3C)c(=O)c2=O)n1"
880

For the compound COc1ccccc1NC(=O)C1CCCN(c2nc3ccccc3nc2OC)C1 (stereo not drawn) , report RP-LC retention time.
1160

State, in one line, measured RP-LC retention time of CCOC(=O)c1cc(S(=O)(=O)N2CCCC2C(=O)N2CCC3(CC2)OCCO3)cn1C (stereo not drawn)
720

Provide RP-LC retention time value for the following compound: CCN1CCCC1CNS(=O)(=O)c1cc(-c2nc(C)c(C(=O)N3CCCC3)s2)cs1 (stereo not drawn)
604

Kindly indicate its recorded RP-LC retention time. Item: COc1ccc(CCc2nc(C3CC(=O)N(c4ccc(F)c(Cl)c4)C3)no2)cc1 (stereo not drawn)
1040

Kindly indicate its recorded RP-LC retention time. Item: "Cc1ccc(C)c(NC(=O)N2CCC3(CC2)NC(=O)c2ccc(F)cc2N3C)c1"
769

Give recorded RP-LC retention time. CC(C)(C)C(=O)N1CC(c2nc(-c3ccc(F)cc3)no2)C2(CCOCC2)C1 (stereo not drawn)
964

Report measured RP-LC retention time; entry is CC(C)(C)C1CCc2c(sc3nc(CCC(=O)N4CCC(C(N)=O)CC4)[nH]c(=O)c23)C1 (stereo not drawn)
779

Given the compound "CCCCC(=O)Nc1ccc2c(c1)nc(CN1CCN(C(=O)c3ccco3)CC1)n2C" , write its reported RP-LC retention time.
619

# return recorded RP-LC retention time for entry "COc1ccc(S(=O)(=O)CCc2nc(-c3cccc(-c4ccnn4C)c3)no2)cc1"
866

Give RP-LC retention time for the following compound: CC(C)CN1C(=O)c2ccccc2C(C(=O)NCCCN2CCOCC2)C1c1cccs1 (stereo not drawn)
644

Read the entry O=C(NCc1cccc(Cl)c1)C1CC(=O)N(c2n[nH]c3cccc(F)c23)C1 (stereo not drawn) and write its reported RP-LC retention time.
749

State, in one line, measured RP-LC retention time of "O=C(Nc1ccc(-n2cnc(C(=O)N3CCN(c4ccccc4)CC3)c2)nc1)C1CC1"
726

Using known records, supply RP-LC retention time for Cc1ccc(S(=O)(=O)N2CCCCC2CCNC(=O)c2cccn(C)c2=O)cc1 (stereo not drawn)
760

Query RP-LC retention time for "COc1ccc(N2CCN(CCNC(=O)c3ccc(Br)o3)CC2)cc1"
583

Look up RP-LC retention time of "Cc1cc(C)n(CCC(=O)NCc2cccnc2Oc2ccccc2)n1" and report it.
706

Supply reported RP-LC retention time belonging to this compound: "Cc1nnc(-c2cc(C)n(CC(=O)Nc3ccc(C)c(Cl)c3)c2C)o1"
852

Assign RP-LC retention time to the following record: "COc1ccc(-c2c(C)noc2NC(C)=O)cc1S(=O)(=O)N1CCc2ccccc2C1"
807

Indicate its recorded RP-LC retention time; the compound in question is "O=C(CCC1CCN(c2cc(NC3CC3)ncn2)CC1)NCc1cc(F)ccc1F"
666

Give recorded RP-LC retention time. "Oc1cccc(-c2nc3ncccn3c2Nc2ccc(Cl)cc2)c1"
710

Provide only the value of recorded RP-LC retention time for "COc1ccc(OCC(=O)N(C)CCc2noc(COc3ccccc3F)n2)cc1"
848
